biological target: furin, P09958; experiment: furin cleavage Z-score vs untreated control; higher = more cleavage, active = 3.5 or more, inactive = 1 or less, 8 variable residues between constant flanks; conditions: 7.5 min;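 note: purified furin at 1:10 enzyme:substrate in 50 mM HEPES pH 7.5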
Sequence (P09958 whole entry): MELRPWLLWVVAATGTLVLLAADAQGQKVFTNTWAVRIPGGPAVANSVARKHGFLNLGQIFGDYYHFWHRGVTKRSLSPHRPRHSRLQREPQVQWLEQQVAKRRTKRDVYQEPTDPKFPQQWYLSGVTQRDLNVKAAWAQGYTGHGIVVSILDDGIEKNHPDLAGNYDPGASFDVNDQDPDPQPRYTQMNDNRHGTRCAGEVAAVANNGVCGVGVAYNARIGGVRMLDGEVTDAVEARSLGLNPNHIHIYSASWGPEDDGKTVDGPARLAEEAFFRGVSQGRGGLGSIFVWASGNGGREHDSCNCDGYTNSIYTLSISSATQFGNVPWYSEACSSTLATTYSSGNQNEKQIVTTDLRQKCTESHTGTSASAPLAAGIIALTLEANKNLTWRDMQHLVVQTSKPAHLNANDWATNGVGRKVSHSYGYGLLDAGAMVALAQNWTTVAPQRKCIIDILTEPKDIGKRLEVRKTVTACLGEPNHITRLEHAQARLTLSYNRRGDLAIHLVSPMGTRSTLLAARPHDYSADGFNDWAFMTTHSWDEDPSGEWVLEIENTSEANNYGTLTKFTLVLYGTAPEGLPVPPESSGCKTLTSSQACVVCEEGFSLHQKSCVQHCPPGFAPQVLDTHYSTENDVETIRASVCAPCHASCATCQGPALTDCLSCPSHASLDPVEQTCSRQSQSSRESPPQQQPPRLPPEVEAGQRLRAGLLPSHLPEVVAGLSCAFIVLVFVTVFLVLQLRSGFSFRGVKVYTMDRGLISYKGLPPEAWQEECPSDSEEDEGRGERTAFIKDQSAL
The list shows a part of the results. No count for the full screen is at hand.
Please enter yes where furin cleavage Z-score is greater than or equal to -0.3, and no where it is lower.

**Query** Identify whether the reported furin cleavage Z-score of the following sequence is -0.3 or greater: CAQLLRRRRAAGNASASA [FS-1475]
**Result** yes

**Query** Confirm if furin cleavage Z-score reported for the sequence CAQGCRKDRGAGNASASA [FS-77] is -0.3 or above.
**Result** no

**Query** Has CAIDVVCCSMAGNASASA [HC2104] a recorded furin cleavage Z-score greater than or equal to -0.3?
**Result** yes

**Query** Does CAACLRKLGVAGNASASA [HC1614] have a reported furin cleavage Z-score of at least -0.3?
**Result** no

**Query** Quick check: does CAWGRRKARMAGNASASA [FS-1437] have furin cleavage Z-score greater than or equal to -0.3?
**Result** yes

**Query** Check the entry CAVVCCSMSLAGNASASA [HC2085] : does furin cleavage Z-score equal or exceed -0.3?
**Result** no

**Query** Hi team, for CATTACSGSWAGNASASA [HC1863] , is the recorded furin cleavage Z-score at or above -0.3?
**Result** no

**Query** Tell me whether furin cleavage Z-score is at least -0.3 here: CAREKKADRDAGNASASA [FS-2913]
**Result** yes

**Query** Please tell me: is the sequence CASHRRQRRVAGNASASA [FS-499] at or over -0.3 in terms of furin cleavage Z-score?
**Result** yes

**Query** // inclusive: furin cleavage Z-score at least -0.3? input: CAMVECSQHLAGNASASA [HC1690]
**Result** yes

**Query** For this sequence, is measured furin cleavage Z-score -0.3 or higher? CATTPFSGSWAGNASASA [HC46]
**Result** yes

**Query** Please indicate if the recorded furin cleavage Z-score for CALKRRDRRMAGNASASA [FS-1227] meets or exceeds -0.3.
**Result** yes

**Query** Item CAWPLYGNEGAGNASASA [HC202] with furin cleavage Z-score of -0.3 or above?
**Result** yes

**Query** Exam item: decide whether the reported furin cleavage Z-score for CASWERPRRPAGNASASA [FS-876] is at least -0.3.
**Result** no

**Query** // inclusive: furin cleavage Z-score at least -0.3? input: CATTPQSGSWAGNASASA [HC59]
**Result** no

**Query** furin cleavage Z-score >= -0.3 for CAYCLRKRRMAGNASASA [FS-1664] ?
**Result** yes

**Query** Could you tell me if the measured furin cleavage Z-score of CAMEEWSQHLAGNASASA [HC7] reaches -0.3 or more?
**Result** yes

**Query** Please check the record CALLMCAVHPAGNASASA [HC598] and state if its furin cleavage Z-score is at or above -0.3.
**Result** no

**Query** Quick check: does CALLGPADGMAGNASASA [HC666] have furin cleavage Z-score greater than or equal to -0.3?
**Result** no

**Query** Is reported furin cleavage Z-score greater than or equal to -0.3 here: CAQEVRSKRDAGNASASA [FS-622]
**Result** yes

**Query** Is the recorded value of furin cleavage Z-score equal to or greater than -0.3 for this sequence? CARHRRPRRVAGNASASA [FS-1258]
**Result** yes

**Query** Does the sequence CASTEDLVNLAGNASASA [HC1098] have recorded furin cleavage Z-score that is -0.3 or more?
**Result** yes

**Query** Check if furin cleavage Z-score >= -0.3 (inclusive). Item: CAPRALRKRDAGNASASA [FS-1603]
**Result** yes
